Test: Crystal particle size distribution and average particle size (SHIMADZU SALD1100, medium diisopropyl ether)
Assay type: physicochemical
Conditions: fraction of crystals with 10 μm ≦ D < 20 μm; hydrobromide
Counter-ions that a name gives are not always drawn.
Property Label: crystal particle size distribution: not less than 10 μm and less than 20 μm

// batch mode: one crystal particle size distribution: not less than 10 μm and less than 20 μm value per listed entry
1. CN(C)CCCC1(c2ccc(F)cc2)OCc2cc(C#N)ccc21 (single isomer, unassigned) [Example 1, citalopram hydrobromide]
2. CN(C)CCCC1(c2ccc(F)cc2)OCc2cc(C#N)ccc21 (stereo not shown) [Example 3, citalopram hydrobromide]
3. CN(C)CCCC1(c2ccc(F)cc2)OCc2cc(C#N)ccc21 (stereo not shown) [Example 2, citalopram hydrobromide]
4. CN(C)CCCC1(c2ccc(F)cc2)OCc2cc(C#N)ccc21 (single isomer, unassigned) [Example 6, citalopram hydrobromide]
5. CN(C)CCCC1(c2ccc(F)cc2)OCc2cc(C#N)ccc21 (stereo not shown) [Example 5, citalopram hydrobromide]
6. CN(C)CCCC1(c2ccc(F)cc2)OCc2cc(C#N)ccc21 (single isomer, unassigned) [Example 4, citalopram hydrobromide]
7. CN(C)CCCC1(c2ccc(F)cc2)OCc2cc(C#N)ccc21 (stereo not shown) [Comparative Example 1, citalopram hydrobromide, reference compound]

["29.1%", "31.0%", "25.7%", "35.5%", "10 μm ≦ D < 20 μm 26.9%", "20.9%", "23.9%"]

* * *

Assay: Crystal particle size distribution and average particle size (SHIMADZU SALD1100, medium diisopropyl ether)
Assay type: physicochemical
Details: fraction of crystals with D < 5 μm; hydrobromide
Structures can show the parent of a compound that is named as a salt.
Property Label: crystal particle size distribution: less than 5 μm (%)
Give bare numbers, in %.

Here's what some known entries look like.
Compound	Reported Value
CN(C)CCCC1(c2ccc(F)cc2)OCc2cc(C#N)ccc21 (single isomer, unassigned) [Example 1, citalopram hydrobromide]	17.1
CN(C)CCCC1(c2ccc(F)cc2)OCc2cc(C#N)ccc21 (single isomer, unassigned) [Example 6, citalopram hydrobromide]	12.6
CN(C)CCCC1(c2ccc(F)cc2)OCc2cc(C#N)ccc21 (single isomer, unassigned) [Example 4, citalopram hydrobromide]	9.6

Attention now shifts to the item below.
Fill blank: measured crystal particle size distribution: less than 5 μm of the compound CN(C)CCCC1(c2ccc(F)cc2)OCc2cc(C#N)ccc21 (stereo not shown) [Comparative Example 1, citalopram hydrobromide, reference compound] is ____. 41.9

* * *

Experiment: Crystal particle size distribution and average particle size (SHIMADZU SALD1100, medium diisopropyl ether)
Assay type: physicochemical
Settings: fraction of crystals with D ≧ 40 μm; hydrobromide
Structures can show the parent of a compound that is named as a salt.
Property Label: crystal particle size distribution: not less than 40 μm (%)
Give bare numbers, in %.

Here's what some known entries look like.
Compound	Reported Value
CN(C)CCCC1(c2ccc(F)cc2)OCc2cc(C#N)ccc21 (single isomer, unassigned) [Example 1, citalopram hydrobromide]	4.6
CN(C)CCCC1(c2ccc(F)cc2)OCc2cc(C#N)ccc21 (single isomer, unassigned) [Example 6, citalopram hydrobromide]	2.4
CN(C)CCCC1(c2ccc(F)cc2)OCc2cc(C#N)ccc21 (stereo not shown) [Comparative Example 1, citalopram hydrobromide, reference compound]	0

Fill blank: measured crystal particle size distribution: not less than 40 μm of the compound CN(C)CCCC1(c2ccc(F)cc2)OCc2cc(C#N)ccc21 (single isomer, unassigned) [Example 4, citalopram hydrobromide] is ____. 25.5

* * *

Test: Crystal particle size distribution and average particle size (SHIMADZU SALD1100, medium diisopropyl ether)
Type: physicochemical
Conditions: average diameter upon conversion of particle volume into sphere; hydrobromide
Structures can show the parent of a compound that is named as a salt.
Would you mind telling me the reported average particle size of each entry?
Numbers only, in μm.

Molecule	Unit Annotation	Reported Value
CN(C)CCCC1(c2ccc(F)cc2)OCc2cc(C#N)ccc21 (single isomer, unassigned) [Example 6, citalopram hydrobromide]	μm	14.6
CN(C)CCCC1(c2ccc(F)cc2)OCc2cc(C#N)ccc21 (stereo not shown) [Example 2, citalopram hydrobromide]	μm	7.8
CN(C)CCCC1(c2ccc(F)cc2)OCc2cc(C#N)ccc21 (stereo not shown) [Comparative Example 1, citalopram hydrobromide, reference compound]	μm	6.3

// batch mode: one average particle size value per listed entry
1. CN(C)CCCC1(c2ccc(F)cc2)OCc2cc(C#N)ccc21 (stereo not shown) [Example 3, citalopram hydrobromide]
2. CN(C)CCCC1(c2ccc(F)cc2)OCc2cc(C#N)ccc21 (single isomer, unassigned) [Example 1, citalopram hydrobromide]
3. CN(C)CCCC1(c2ccc(F)cc2)OCc2cc(C#N)ccc21 (stereo not shown) [Example 5, citalopram hydrobromide]
4. CN(C)CCCC1(c2ccc(F)cc2)OCc2cc(C#N)ccc21 (single isomer, unassigned) [Example 4, citalopram hydrobromide]

11.0
12.9
15.1
23.8

* * *

Would you mind telling me the reported crystal particle size distribution: not less than 20 μm and less than 40 μm of each entry?
Assay: Crystal particle size distribution and average particle size (SHIMADZU SALD1100, medium diisopropyl ether)
Format: physicochemical
Conditions: fraction of crystals with 20 μm ≦ D < 40 μm; hydrobromide
Structures can show the parent of a compound that is named as a salt.
Answers are plain numbers, in %.

Here's what some known entries look like.
Molecule	Reported Value
CN(C)CCCC1(c2ccc(F)cc2)OCc2cc(C#N)ccc21 (stereo not drawn) [Comparative Example 1, citalopram hydrobromide, reference compound]	4.0
CN(C)CCCC1(c2ccc(F)cc2)OCc2cc(C#N)ccc21 (single isomer, unassigned) [Example 4, citalopram hydrobromide]	31.7

Attention now shifts to the item below.
Fill blank: measured crystal particle size distribution: not less than 20 μm and less than 40 μm of the molecule CN(C)CCCC1(c2ccc(F)cc2)OCc2cc(C#N)ccc21 (single isomer, unassigned) [Example 1, citalopram hydrobromide] is ____. 27.0

* * *

Experiment: Crystal particle size distribution and average particle size (SHIMADZU SALD1100, medium diisopropyl ether)
Assay type: physicochemical
Conditions: fraction of crystals with 20 μm ≦ D < 40 μm; hydrobromide
Where a name gives a salt, the structure may show the parent alone.
Property Label: crystal particle size distribution: not less than 20 μm and less than 40 μm (%)
Answers are plain numbers, in %.

Here's what some known entries look like.
>>> df
                                   compound  reported_value
0  CN(C)CCCC1(c2ccc(F)cc2)OCc2cc(C#N)ccc21 (single isomer, unassigned) [Example 6, citalopram hydrobromide]            29.3
1  CN(C)CCCC1(c2ccc(F)cc2)OCc2cc(C#N)ccc21 (stereo not shown) [Example 2, citalopram hydrobromide]            12.2

Fill blank: measured crystal particle size distribution: not less than 20 μm and less than 40 μm of the compound CN(C)CCCC1(c2ccc(F)cc2)OCc2cc(C#N)ccc21 (stereo not shown) [Example 3, citalopram hydrobromide] is ____. 21.6
